Organism: Rattus norvegicus
assayExplanation: Open TG-GATES - Regimen: Daily Repeat
Assay type: toxicity, organism-based, Sprague-Dawley
Set-up: regimen Daily Repeat, gender Male, age 6 weeks
setupConditions: in vivo, po, 0 mg/kg, […], tissue Plasma, route gavage, dose level Control, time 14 day
Entries annotated with measured AST
Form entry: value (IU/L) — number only.

[
  {
    "molecule": "NNC(=O)c1ccncc1",
    "assayMetric": "AST",
    "unitInfo": "IU/L",
    "result": 62
  },
  {
    "molecule": "CN(C)CCCN1c2ccccc2CCc2ccccc21",
    "assayMetric": "AST",
    "unitInfo": "IU/L",
    "result": 63.6
  },
  {
    "molecule": "CC(C)OC(=O)C(C)(C)Oc1ccc(C(=O)c2ccc(Cl)cc2)cc1 [FENOFIBRATE]",
    "assayMetric": "AST",
    "unitInfo": "IU/L",
    "result": 65.8
  },
  {
    "molecule": "O=C(CCCN1CCC(O)(c2ccc(Cl)cc2)CC1)c1ccc(F)cc1",
    "assayMetric": "AST",
    "unitInfo": "IU/L",
    "result": 62.4
  },
  {
    "molecule": "CCCNC(=O)NS(=O)(=O)c1ccc(Cl)cc1 [CHLORPROPAMIDE]",
    "assayMetric": "AST",
    "unitInfo": "IU/L",
    "result": 68.6
  }
]

For this molecule ( CN(C)CCN(Cc1cccs1)c1ccccn1 ), measured AST is 68

For this molecule ( COC1=CC(=O)C[C@@H](C)[C@]12Oc1c(Cl)c(OC)cc(OC)c1C2=O ), measured AST is 55.8

For this molecule ( CCOC(=O)CCC(=O)O[C@H]1[C@H](O[C@@H]2[C@@H](C)[C@H](O[C@H]3C[C@@](C)(OC)[C@@H](O)[C@H](C)O3)[C@@H](C)C(=O)O[C@H](CC)[C@@](C)(O)[C@H](O)[C@@H](C)C(=O)[C@H](C)C[C@@]2(C)O)O[C@H](C)C[C@@H]1N(C)C [ERYTHROMYCIN ETHYLSUCCINATE] ), measured AST is 76

For this molecule ( CN1C(=O)CN=C(c2ccccc2)c2cc(Cl)ccc21 ), measured AST is 68.2
